Data provenance is patent US20240082424A1.

assay: Pharmacokinetics (PK) analysis by oral administration in rats; assay type: in vivo, Crl:CD (SD) rats; settings: single oral dose, rat plasma, 0.5% CMC suspension; equol clathrate 100 mg/kg, equol 6.3 mg/kg
READOUT_NAME: AUC0-24 (area) (ng·h/mL)
Give bare numbers, in ng·h/mL.

Q) Report AUC0-24 (area), nothing else, for this compound: "Oc1ccc([C@H]2COc3cc(O)ccc3C2)cc1"
A) 363
